- Test system: breast cancer MDA-MB231
- PROTOCOL_TEXT: WST-1 cell proliferation assay, MDA-MB231
- Type: cell-based, human
- SETTINGS: MDA-MB231, WST-1, 72 h; read-out: Anticancer Activity IC50 MDA-MB231
pIC50: −log10 of the molar value.
OBSERVED_PROPERTY: pIC50

COMPOUND	REPORTED_VALUE
N.N.[Cl][Pt][Cl] [Cisplatin, reference compound]	5.50

====

- Test system: breast cancer MDA-MB231
- PROTOCOL_TEXT: WST-1 cell proliferation assay, MDA-MB231
- Type: cell-based, human
- SETTINGS: Homo sapiens, MDA-MB-231; MDA-MB231, WST-1, 72 h; read-out: Anticancer Activity IC50 MDA-MB231

MOLECULE	EXPERIMENTAL_SYSTEM	IC50
Clc1ccc(Cn2cc(CN3c4ccncc4Sc4ccncc43)nn2)cc1	breast cancer MDA-MB231	4.26 µM
Fc1ccc(Cn2cc(CN3c4cnccc4Sc4cccnc43)nn2)cc1	breast cancer MDA-MB231	9.21 µM
Fc1ccc(Cn2cc(CN3c4ccncc4Sc4ccncc43)nn2)cc1	breast cancer MDA-MB231	25.7 µM
N#Cc1ccc(Cn2cc(CN3c4ccncc4Sc4ncccc43)nn2)cc1	breast cancer MDA-MB231	38.8 µM
Fc1ccc(Cn2cc(CN3c4cccnc4Sc4cccnc43)nn2)cc1	breast cancer MDA-MB231	7.82 µM
Clc1ccc(Cn2cc(CN3c4cnccc4Sc4cccnc43)nn2)cc1	breast cancer MDA-MB231	4.71 µM
c1ccc(SCn2cc(CN3c4ccncc4Sc4ncccc43)nn2)cc1	breast cancer MDA-MB231	44.3 µM
c1ccc(Cn2cc(CN3c4cnccc4Sc4cccnc43)nn2)cc1	breast cancer MDA-MB231	56.3 µM
N#Cc1ccc(Cn2cc(CN3c4cnccc4Sc4cccnc43)nn2)cc1	breast cancer MDA-MB231	12 µM
c1ccc(Cn2cc(CN3c4cccnc4Sc4cccnc43)nn2)cc1	breast cancer MDA-MB231	13.7 µM
Fc1ccc(Cn2cc(CN3c4ccncc4Sc4ncccc43)nn2)cc1	breast cancer MDA-MB231	1.97 µM
c1ccc(SCn2cc(CN3c4ccncc4Sc4ccncc43)nn2)cc1	breast cancer MDA-MB231	0.64 µM
Clc1ccc(Cn2cc(CN3c4ccncc4Sc4ncccc43)nn2)cc1	breast cancer MDA-MB231	13.4 µM
c1ccc(Cn2cc(CN3c4ccncc4Sc4ccncc43)nn2)cc1	breast cancer MDA-MB231	0.77 µM
N#Cc1ccc(Cn2cc(CN3c4cccnc4Sc4cccnc43)nn2)cc1	breast cancer MDA-MB231	25.8 µM
c1ccc(Cn2cc(CN3c4ccncc4Sc4ncccc43)nn2)cc1	breast cancer MDA-MB231	7.87 µM
N#Cc1ccc(Cn2cc(CN3c4ccncc4Sc4ccncc43)nn2)cc1	breast cancer MDA-MB231	3.5 µM
c1ccc(SCn2cc(CN3c4cnccc4Sc4cccnc43)nn2)cc1	breast cancer MDA-MB231	12 µM
Clc1ccc(Cn2cc(CN3c4cccnc4Sc4cccnc43)nn2)cc1	breast cancer MDA-MB231	0.51 µM
c1ccc(SCn2cc(CN3c4cccnc4Sc4cccnc43)nn2)cc1	breast cancer MDA-MB231	68.7 µM
